system: rodent lifetime carcinogenesis bioassay, tumor incidence TD50; assay: carcinogenic potency in animals, long-term in vivo studies, CPDB compilation (AID 1745844); conditions: rat; strain Fischer 344; males; by gavage; site: thyroid gland; lesion: follicular-cell adenoma + follicular-cell carcinoma; dosed 94 weeks; study length 104 weeks
Recorded metric: TD50 (mg/kg/day)
Give bare numbers, in mg/kg/day.

The value of TD50 measured for the compound ClCC(Cl)CCl turned out to be 35.2

----------
system: rodent lifetime carcinogenesis bioassay, tumor incidence TD50; assay: carcinogenic potency in animals, long-term in vivo studies, CPDB compilation (AID 1745844); details: rat; strain F344/DuCrj; females; in feed; site: liver; lesion: neoplastic nodule; dosed 61 weeks; study length 61 weeks
Recorded metric: TD50

Looking up Cc1cnc2ccc3c(nc(N)n3C)c2n1 , I see its TD50 listed as 6.31 mg/kg/day
